- assay info: Solubility of Compound I anhydrous Polymorph B in various liquid vehicles (suspension equilibrated at least 24 hours, filtered, HPLC)
- Assay type: physicochemical
- condition set: aqueous with cosolvent or surfactant or cyclodextrin, thermodynamic from solid, 15% glycerol, 10% EtOH, 75% H2O, room temperature
value type: solubility

**Query** Assign solubility to the following record: C[C@H](NC(=O)C(C)(C)Oc1ccc(C(F)(F)F)cn1)[C@@H](Cc1ccc(Cl)cc1)c1cccc(C#N)c1
**Result** < 1 µg/mL

* * *

- assay info: Solubility of Compound I anhydrous Polymorph B in various liquid vehicles (suspension equilibrated at least 24 hours, filtered, HPLC)
- Format: physicochemical
- condition set: aqueous with cosolvent or surfactant or cyclodextrin, thermodynamic from solid, 25% PEG400, 75% H2O, room temperature
value type: solubility (µg/mL)
Answer format: numeric, µg/mL implied, no suffix.

**Query** Look up and state reported solubility for C[C@H](NC(=O)C(C)(C)Oc1ccc(C(F)(F)F)cn1)[C@@H](Cc1ccc(Cl)cc1)c1cccc(C#N)c1
**Result** 4
